Values were extracted from the Immune Epitope Database (IEDB).

molecular target: HLA-A*24:02; test: IEDB peptide-MHC binding, purified MHC/competitive/radioactivity; filed as Kd, often an IC50 or EC50 that approximates it; bounds were set here for any values at or beyond the usual limits of such assays; details: source organism: Lymphocytic choriomeningitis virus (strain Armstrong)
parameter: Kd (nM)
Field: numeric (nM). Do not append units.

The measured Kd that `QYLIIQNRTW` showed for HLA-A*24:02 is 693

====

target: HLA-A*03:01; assay: IEDB peptide-MHC binding, purified MHC/direct/fluorescence; filed as Kd, often an IC50 or EC50 that approximates it; bounds were set here for any values at or beyond the usual limits of such assays; settings: source organism: Yersinia pestis
parameter: pKd
Lab note: report pKd as minus log10 of the concentration in molar units, number only.

Tested on HLA-A*03:01, the item `QWSPGPGRL` showed pKd equal to 6.14

====

target: HLA-A*01:01; assay: IEDB peptide-MHC binding, purified MHC/direct/fluorescence; filed as Kd, often an IC50 or EC50 that approximates it; bounds were set here for any values at or beyond the usual limits of such assays; details: source organism: Salmonella enterica subsp. enterica serovar Typhi
parameter: pKd
A value of pKd is the negative decimal logarithm of a concentration given in moles per litre.

The reported pKd of the sequence `QTDDGVRFT` was 4.70

====

target: HLA-A*02:01; test: IEDB peptide-MHC binding, purified MHC/direct/fluorescence; filed as Kd, often an IC50 or EC50 that approximates it; bounds were set here for any values at or beyond the usual limits of such assays; conditions: source organism: Salmonella enterica subsp. enterica serovar Typhimurium
For each record, write down the corresponding Kd.

Lab book: Kd of `QLCDEITIL` noted as 0.745 µM

# sequence `KQPNRPLFI` ; its Kd = 6 µM

====

biological target: HLA-B*37:01; experiment: IEDB peptide-MHC binding, purified MHC/competitive/fluorescence; bounds were set here for any values at or beyond the usual limits of such assays; conditions: source organism: Monodelphis domestica
pIC50: −log10 of the molar value.
parameter: pIC50

The sequence listed as `FLLPILSQIYT` shows pIC50 equal to ≤ 4.70

====

biological target: HLA-A*31:01; assay: IEDB peptide-MHC binding, purified MHC/direct/fluorescence; filed as Kd, often an IC50 or EC50 that approximates it; bounds were set here for any values at or beyond the usual limits of such assays; conditions: source organism: Influenza A virus (A/Quail/Shanghai/8/96(H9N2))
parameter: Kd

The value of Kd measured for the sequence `LVGGREWSY` turned out to be ≥ 20 µM

====

target: HLA-A*31:01; assay: IEDB peptide-MHC binding, purified MHC/direct/fluorescence; filed as Kd, often an IC50 or EC50 that approximates it; bounds were set here for any values at or beyond the usual limits of such assays; conditions: source organism: Brucella melitensis
parameter: pKd
Notebook: values listed as pKd are -log10 of the concentration (mol/L).

The reported pKd of the sequence `WMARRHAER` was 7.86

====

Kindly state log10(Kd) for each of the entries shown.
biological target: HLA-A*31:01; assay: IEDB peptide-MHC binding, purified MHC/competitive/radioactivity; filed as Kd, often an IC50 or EC50 that approximates it; bounds were set here for any values at or beyond the usual limits of such assays; details: source organism: Vaccinia virus WR
A difference of one corresponds to tenfold Kd; all values are log10 with Kd in nM.

Given item `NTRQLKLLEY` , the value recorded as its log10(Kd) is 3.99

# sequence `VLDRDGNFR` ; its log10(Kd) = 2.20

Value of log10(Kd) reported for the sequence `KIVDHIVMY` is 4.07

Entry `VIGLTTHCTK` ; log10(Kd) = 2.88

Noted for `LTMKAIEKDR` : its log10(Kd) reads 2.77

// field: log10(Kd); key: `VTMMKYCSY` ; value = 2.66

Input `WLSSKGLACY` . Output log10(Kd): 4.29

Please fill in: log10(Kd) reported for `GILKKLSSIK` = 3.74

The value of log10(Kd) measured for the sequence `SVIRLLIWAY` turned out to be 3.35

// log10(Kd) value for `ATMLEYVRY` : 3.53

log10(Kd) measured on `FTDISMSLYK` = 3.97

Value of log10(Kd) reported for the sequence `NVIEDITFLR` is 1.81

Looking up `HINALEYIIK` , I found its log10(Kd) recorded as 3.18

Value of measured log10(Kd) for the entry `NTPLHIVCSK` : 2.37

# log10(Kd) of `IITPVVFYR` = 0.03

So for `TTKDYFSFKK` , the logged log10(Kd) turned out to be 1.98

// recorded log10(Kd) for `DSIPISELSR` : 3.62

Reported log10(Kd) for `SLSVETITEK` was 3.10

Consider `ISARALKAY` . Its measured log10(Kd) is 3.98

So, `YLRNYMVIK` ? Its log10(Kd) was 1.54

For this sequence ( `LSRLRYNLCK` ), measured log10(Kd) is 2.31

In plain terms, `KSKNINIEVK` has a documented log10(Kd) of 3.03

Please fill in: log10(Kd) reported for `KSSSIDVDKR` = 1.93

Form: sequence = `WFLKSGAVVK` ; log10(Kd) = 3.88

Item: `SVEDVSAFVR` | log10(Kd): 2.82

In plain terms, `NLPYNWKNFY` has a documented log10(Kd) of 3.24

Value of measured log10(Kd) for the entry `QLDEKSSIK` : 3.63

Field log10(Kd) (entry `NATDFWRLY` ) reads 2.68

Summary for this sequence, `IFREIASSMK` : log10(Kd) is 2.63

Per the record, `DLIVTFRER` has log10(Kd) of 2.71

Lab note: measured log10(Kd) of `AALFMYYAKR` was 1.23

The reported log10(Kd) of the sequence `NFMVSVSDFR` was 1.97

Measured log10(Kd) of `NTLSERISSK` : 3.15

The sequence listed as `RIQRRDDVDR` has a reported log10(Kd) of 1.89

====

biological target: HLA-A*03:01; test: IEDB peptide-MHC binding, purified MHC/direct/fluorescence; filed as Kd, often an IC50 or EC50 that approximates it; bounds were set here for any values at or beyond the usual limits of such assays; conditions: source organism: Mycolicibacterium gilvum
pKd: −log10 of the molar value.
parameter: pKd

get_value(item= `PHDPDFLVL` , readout=pKd) returns ≤ 4.70

====

target: HLA-B*39:01; assay: IEDB peptide-MHC binding, purified MHC/competitive/fluorescence; filed as Kd, often an IC50 or EC50 that approximates it; bounds were set here for any values at or beyond the usual limits of such assays; settings: source organism: Shigella boydii CDC 3083-94
parameter: Kd (nM)
Report only the number, with the unit nM understood.

Reported Kd for `WRLVYASAV` was 11.8

====

biological target: HLA-A*23:01; experiment: IEDB peptide-MHC binding, purified MHC/competitive/radioactivity; filed as Kd, often an IC50 or EC50 that approximates it; bounds were set here for any values at or beyond the usual limits of such assays; settings: source organism: Mammarenavirus brazilense
parameter: Kd (µM)
The response must be a number in µM with no trailing unit.

HLA-A*23:01 Kd of `DEALRGFLLY` is 5.86

Given the sequence `LSHLSLGLI` and test system HLA-A*23:01, the measured Kd is 7.76

====

biological target: HLA-A*32:01; experiment: IEDB peptide-MHC binding, purified MHC/competitive/radioactivity; filed as Kd, often an IC50 or EC50 that approximates it; bounds were set here for any values at or beyond the usual limits of such assays; conditions: source organism: Vaccinia virus Copenhagen
parameter: Kd (nM)
The response must be a number in nM with no trailing unit.

`AQDFQSLTI` yielded Kd of 67.6

Recorded Kd (sequence `HMAYSFQTF` ): 16.3

`IRWYISLSF` yielded Kd of 1170

// `SMWYIPNVF` : Kd value = 5.1

====

biological target: HLA-B*15:17; experiment: IEDB peptide-MHC binding, purified MHC/competitive/fluorescence; filed as Kd, often an IC50 or EC50 that approximates it; bounds were set here for any values at or beyond the usual limits of such assays; settings: source organism: Bacillus licheniformis
parameter: pKd
# pKd is unitless: minus log10 of the molar concentration; print number only

Per the record, `KTIECSKEL` has pKd of 8.00

====

biological target: HLA-A*01:01; assay: IEDB peptide-MHC binding, purified MHC/direct/fluorescence; filed as Kd, often an IC50 or EC50 that approximates it; bounds were set here for any values at or beyond the usual limits of such assays; settings: source organism: Influenza A virus (A/England/627/01(H1N2))
parameter: Kd

Form: sequence = `KMARLGKGY` ; Kd = ≥ 20 µM
